Answer each item with its documented DC50.
target: ER (Homo sapiens (Human), UniProt P03372); experiment: In-cell western blot analysis of ER for "B" compounds; assay type: cell-based; settings: 16 hours, read-out: ICW DC50
Sequence (P03372 whole entry): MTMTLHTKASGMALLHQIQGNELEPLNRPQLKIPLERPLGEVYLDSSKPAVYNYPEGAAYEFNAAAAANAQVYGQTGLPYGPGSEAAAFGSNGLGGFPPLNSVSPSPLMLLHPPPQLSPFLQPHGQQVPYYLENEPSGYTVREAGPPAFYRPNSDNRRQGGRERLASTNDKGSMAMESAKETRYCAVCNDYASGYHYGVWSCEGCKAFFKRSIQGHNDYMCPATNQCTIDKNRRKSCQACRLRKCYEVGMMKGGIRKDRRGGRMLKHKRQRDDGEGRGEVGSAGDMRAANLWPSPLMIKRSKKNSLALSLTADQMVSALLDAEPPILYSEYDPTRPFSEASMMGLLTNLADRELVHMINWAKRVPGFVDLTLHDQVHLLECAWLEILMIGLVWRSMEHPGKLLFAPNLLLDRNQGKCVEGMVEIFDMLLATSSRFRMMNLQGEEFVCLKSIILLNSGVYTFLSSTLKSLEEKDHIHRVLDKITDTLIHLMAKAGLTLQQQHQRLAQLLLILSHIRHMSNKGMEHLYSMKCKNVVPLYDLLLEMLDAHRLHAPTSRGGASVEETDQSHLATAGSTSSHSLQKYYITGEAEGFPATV

Below: 5 molecules and their reported DC50.
molecule: O=C1CCC(N2Cc3c(ccc4c3OCC43CCN(CC4COC5(CN(c6ccc([C@@H]7c8ccc(O)cc8CC[C@@H]7c7ccccc7)cc6)C5)OC4)CC3)C2=O)C(=O)N1 (stereo partly shown) [Compound B346]
DC50: 10 to 100 nM

molecule: O=C1CC[C@H](N2Cc3c(ccc4c3OCC43CCN(CC4CCC5(C4)CN(c4ccc([C@@H]6c7ccc(O)cc7CC[C@@H]6c6ccccc6)cc4)C5)CC3)C2=O)C(=O)N1 (stereo partly shown) [Compound B359]
DC50: 10 to 100 nM

molecule: O=C1CCC(N2C(=O)c3cc4c(cc3C2=O)N2C[C@@H](NCC3CC5(CCN(c6ccc([C@@H]7c8ccc(O)cc8CC[C@@H]7c7ccccc7)cc6)CC5)C3)C[C@H]2CO4)C(=O)N1 (stereo partly shown) [Compound B329]
DC50: > 100 nM

molecule: O=C1CCC(N2Cc3cc4c(cc3C2=O)OC[C@@H]2CN(C(=O)CN3C[C@@H]5CN(c6ccc([C@@H]7c8ccc(O)cc8CC[C@@H]7c7ccccc7)cc6)C[C@@H]5C3)CCN42)C(=O)N1 (stereo partly shown) [Compound B157]
DC50: 10 to 100 nM

molecule: CN1C[C@@H]2CN(CC3COC4(CCN(c5ccc([C@@H]6c7ccc(O)cc7CC[C@@H]6c6ccccc6)cc5)CC4)C3)CCN2c2cc3c(cc21)C(=O)N(C1CCC(=O)NC1=O)C3 (stereo partly shown) [Compound B234]
DC50: > 100 nM

Your task in this section: give DC50 for each listed record.
1. O=C1CCC(N2Cc3c(ccc4c3OC[C@H]3CN(CC(=O)N5CC(Nc6ccc([C@@H]7c8ccc(O)cc8CC[C@@H]7c7ccccc7)cc6)C5)CCN43)C2=O)C(=O)N1 (stereo partly shown) [Compound B220]
2. O=C1CCC(N2Cc3cc4c(cc3C2=O)OC[C@@H]2CN(CC3CCC5(C3)CN(c3ccc([C@@H]6c7ccc(O)cc7CC[C@@H]6c6ccccc6)cc3)C5)CCN42)C(=O)N1 (stereo partly shown) [Compound B358]
3. O=C1CCC(Nc2ccc(N3CCN(CC4CCC5(CCN(c6ccc([C@@H]7c8ccc(O)cc8CC[C@@H]7c7ccccc7)cc6)CC5)OC4)CC3)c(F)c2)C(=O)N1 (stereo partly shown) [Compound B382]
4. O=C1CC[C@H](N2Cc3cc4c(cc3C2=O)OC[C@@H]2CN(C[C@H]3COC5(CCN(c6ccc([C@@H]7c8ccc(O)cc8CC[C@@H]7c7ccccc7)cc6)CC5)C3)CCN42)C(=O)N1 [Compound B398]
5. O=C1CCC(N2Cc3cc4c(cc3C2=O)OC[C@@H]2CN(CC3CC5(CCN(c6ccc([C@@H]7c8ccc(O)cc8CC[C@@H]7c7ccccc7)cc6)CC5)C3)CCN42)C(=O)N1 (stereo partly shown) [Compound B211]

1: > 100 nM; 2: 10 to 100 nM; 3: > 100 nM; 4: < 10 nM; 5: < 10 nM

----------
biological target: ER in MCF-7 cells (Homo sapiens (Human)); assay: In-cell Western (ICW) ER degradation assay in MCF-7 cells; assay type: cell-based; settings: MCF-7, ER degradation, 16 hrs treatment; read-out: MCF7 DC50
Answer each item with its documented DC50.

Below: 6 compounds and their reported DC50.
compound: COc1cc(N2CCC(CN3CCC4(CC3)COc3cc5c(cc34)CN([C@H]3CCC(=O)NC3=O)C5=O)CC2)ccc1[C@@H]1c2ccc(O)cc2CC[C@@H]1c1ccccc1 [Compound A33]
DC50: < 1 nM
//
compound: O=C1CC[C@H](N2Cc3cc4c(cc3C2=O)OC[C@H]2CN(C[C@@H]3COC5(CCN(c6ccc([C@H]7c8ccc(O)cc8CC[C@H]7c7ccccc7)cc6)CC5)C3)CCN42)C(=O)N1 [Compound A20]
DC50: < 1 nM
//
compound: O=C1CC[C@H](Nc2ccc(C3CCN(C[C@@H]4COC5(CCN(c6ccc([C@@H]7c8ccc(O)cc8CC[C@@H]7c7ccccc7)cc6)CC5)C4)CC3)cc2)C(=O)N1 (single isomer, unassigned) [Compound A28]
DC50: 10 to 100 nM
//
compound: O=C1CC[C@H](N2Cc3cc4c(cc3C2=O)OC[C@@H]2CN(CC3CCC5(CC3)CN(c3ccc([C@@H]6c7ccc(O)cc7CC[C@@H]6c6ccccc6)cn3)C5)CCN42)C(=O)N1 [Compound A124]
DC50: 10 to 100 nM
//
compound: COc1cc(N2CCC3(CC2)C[C@H](CN2CCN4c5cc6c(cc5OC[C@@H]4C2)C(=O)N([C@H]2CCC(=O)NC2=O)C6)CO3)c(F)cc1[C@@H]1c2ccc(O)cc2CC[C@@H]1c1ccccc1 [Compound A173]
DC50: < 1 nM
//
compound: O=C1CC[C@H](N2Cc3c4c(cc(Cl)c3C2=O)C2(CCN(C[C@@H]3CCC5(CCN(c6ccc([C@@H]7c8ccc(O)cc8CC[C@@H]7c7ccccc7)cc6)CC5)OC3)CC2)CO4)C(=O)N1 [Compound A233]
DC50: < 1 nM

Your task in this section: give DC50 for each listed record.
1. O=C1CC[C@H](N2Cc3c(ccc4c3OCC43CCN(CC4CC5(CCN(c6ncc([C@H]7c8ccc(O)cc8CC[C@H]7c7ccccc7)cn6)CC5)C4)CC3)C2=O)C(=O)N1 [Compound A141]
2. O=C1CC[C@H](N2Cc3c(ccc4c3OC[C@H]3CN(CC5CC6(CCN(c7ccc([C@@H]8c9ccc(O)cc9CC[C@@H]8c8ccccc8)cc7F)CC6)C5)CCN43)C2=O)C(=O)N1 (single isomer, unassigned) [Compound A145]
3. O=C1CC[C@H](N2Cc3c(ccc4c3OC[C@H]3CN(CC5CCC6(CC5)CN(c5ncc([C@@H]7c8ccc(O)cc8CC[C@@H]7c7ccccc7)cn5)C6)CCN43)C2=O)C(=O)N1 (single isomer, unassigned) [Compound A156]

1: 1 to 10 nM; 2: 10 to 100 nM; 3: < 1 nM

----------
Answer each item with its documented DC50.
target: ER (Homo sapiens (Human), UniProt P03372); assay: In-cell western blot analysis of ER for "B" compounds; format: cell-based; details: 16 hours, read-out: ICW DC50

Below: 3 compounds and their reported DC50.
compound: CN(C(=O)c1ccc2c(c1)OC[C@H]1CN(C(=O)CN3CCC4(CC3)CN(c3ccc(C5c6ccc(O)cc6CCC5c5ccccc5)cc3)C4)CCN21)C1CCC(=O)NC1=O (stereo in doubt)
DC50: 10 to 100 nM
--
compound: O=C1CCC(N2Cc3cc4c(cc3C2=O)OC[C@@H]2CN(C(=O)CN3CC(Oc5ccc([C@@H]6c7ccc(O)cc7CC[C@@H]6c6ccccc6)cc5)C3)CCN42)C(=O)N1 (stereo partly shown)
DC50: < 10 nM
--
compound: O=C1CCC(N2Cc3c(ccc4c3OC[C@H]3CN(C(=O)CN5CC(Oc6ccc([C@@H]7c8ccc(O)cc8CC[C@@H]7c7ccccc7)cc6)C5)CCN43)C2=O)C(=O)N1 (stereo partly shown)
DC50: 10 to 100 nM

Your task in this section: give DC50 for each listed record.
1. COc1c2c(cc3c1CN(C1CCC(=O)NC1=O)C3=O)CN(C(=O)CN1CCC3(CC1)CCN(c1ccc([C@@H]4c5ccc(O)cc5CC[C@@H]4c4ccccc4)cc1)CC3)C2 (stereo partly shown)
2. O=C1CC[C@H](NC(=O)c2ccc3c(n2)OC[C@H]2CN(CC4CCC5(C4)CN(c4ccc([C@@H]6c7ccc(O)cc7CC[C@@H]6c6ccccc6)cc4)C5)CCN32)C(=O)N1 (stereo partly shown)
3. O=C1CC[C@H](N2Cc3c(ccc4c3OCC43CCN(CC4CCC5(CCN(c6ccc([C@@H]7c8ccc(O)cc8CC[C@@H]7c7ccccc7)cc6)CC5)OC4)CC3)C2=O)C(=O)N1 (stereo partly shown)
4. O=C1CC[C@H](N2Cc3cc4c(cc3C2=O)OC[C@@H]2CN(C[C@H]3CC[C@@H](Nc5ccc([C@@H]6c7ccc(O)cc7CC[C@@H]6c6ccccc6)cc5)CC3)CCN42)C(=O)N1
5. O=C1CC[C@H](NC(=O)c2ccc(N3CCN(CC4CCN(c5ccc([C@@H]6c7ccc(O)cc7CC[C@@H]6c6ccccc6)cc5)CC4)CC3)cn2)C(=O)N1
6. O=C1CCC(N2Cc3cc4c(cc3C2=O)OC[C@@H]2CN(C(=O)CN3CCC5(CC3)CCN(c3ccc([C@@H]6c7ccc(O)cc7CC[C@@H]6c6ccccc6)cn3)CC5)CCN42)C(=O)N1 (stereo partly shown)

1: < 10 nM; 2: > 100 nM; 3: < 10 nM; 4: 10 to 100 nM; 5: 10 to 100 nM; 6: 10 to 100 nM

Form: compound = COc1c2c(cc3c1CN(C1CCC(=O)NC1=O)C3=O)CN(CC(=O)N1CCC3(CC1)CCN(c1ccc([C@@H]4c5ccc(O)cc5CC[C@@H]4c4ccccc4)cc1)CC3)C2 (stereo partly shown) ; DC50 = < 10 nM
